- experiment: in vivo
- assay conditions: mouse, po
Reported LD50 at 72 h is given for each of the following compounds.
Give a bare numeral; the unit mg/kg is implied.

Examples from the recorded data:
| compound | reading unit | LD50 at 72 h |
| --- | --- | --- |
| Cc1cc(C)c(C(=O)c2ccccc2F)c(C)c1 [compound 11] | mg/kg | 500 |
| Cc1ccc(C(=O)c2ccccc2)c(C)c1C [compound 31] | mg/kg | 1500 |
| O=C(c1ccccc1)c1ccccc1 [compound 27] | mg/kg | 3700 |
| CCC(C)c1ccc(C(=O)c2ccccc2F)cc1 (stereo not shown) [compound 119] | mg/kg | 2000 |

**Q:** Fill blank: measured LD50 at 72 h of the compound CCCCc1ccc(C(=O)c2cccc(I)c2)cc1 [compound 160] is ____.
**A:** 2500

**Q:** Fill blank: measured LD50 at 72 h of the compound CCCCCc1ccc(C(=O)c2ccccc2Cl)cc1 [compound 133] is ____.
**A:** 2000

**Q:** Fill blank: measured LD50 at 72 h of the compound CCCc1ccc(C(=O)c2ccccc2Br)cc1 [compound 142] is ____.
**A:** 1500

**Q:** Fill blank: measured LD50 at 72 h of the compound Cc1ccc(C(=O)c2ccc(Br)cc2)c(C)c1 [compound 152] is ____.
**A:** 1500
